molecular target: ANXA8 (Homo sapiens, UniProt P13928); construct: commercial recombinant protein (MCE); His tag implied by RED-tris-NTA labelling; assay: microscale thermophoresis (Monolith NT.[…]), one-site fit
Sequence (P13928 whole entry): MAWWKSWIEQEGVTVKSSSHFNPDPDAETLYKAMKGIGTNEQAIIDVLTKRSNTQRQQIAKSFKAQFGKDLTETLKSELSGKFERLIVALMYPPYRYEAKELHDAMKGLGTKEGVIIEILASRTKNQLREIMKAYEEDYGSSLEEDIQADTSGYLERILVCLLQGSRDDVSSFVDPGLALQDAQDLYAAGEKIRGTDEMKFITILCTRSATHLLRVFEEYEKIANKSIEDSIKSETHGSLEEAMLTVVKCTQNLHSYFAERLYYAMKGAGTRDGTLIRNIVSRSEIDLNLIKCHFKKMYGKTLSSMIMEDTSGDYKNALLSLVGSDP
MEASURED PARAMETER: Kd (nM)
Just the number in nM, nothing appended.

If you can, please state the reported Kd value of CCCCNc1ncc2c(-c3ccc(CN4CCN(C)CC4)cc3)cn([C@H]3CC[C@H](O)CC3)c2n1 [UNC2025] .
83.5
